# Test system: OVCAR-8 complex spheroid, growth inhibition
# assay protocol: Anticancer human tumor OVCAR-8 cell line growth inhibition [Asc];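 also: spheroids exposed to agents for 7 days before readout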;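 as to viability, T/C: percent viability relative to DMSO vehicle wells taken as 100%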
# stated conditions: second compound 1 µM; first compound 0.0949 µM; stronger effect = lower value
Threshold 90%: viability, T/C strictly smaller gives label 1, otherwise label 0.

compound="NC(=O)C(=Cn1cnc(-c2cc(C(F)(F)F)cc(C(F)(F)F)c2)n1)c1cncnc1 + CNC(C)C(=O)NC1CN(S(=O)(=O)c2cccc(S(=O)(=O)N3CCC4CCC(C(=O)NC(c5ccccc5)c5ccccc5)N4C(=O)C(NC(=O)C(C)NC)C3)c2)CCC2CCC(C(=O)NC(c3ccccc3)c3ccccc3)N2C1=O" label_class="label 1"
compound="Cc1nc(N2CCC3(CC2)COC(C)C3N)c(CO)nc1Sc1ccnc(N)c1Cl (stereo unspecified) + Cc1c(S(C)(=O)=O)c(-c2cc(F)cc(N3CCN(c4ccc(NS(=O)(=O)c5ccc(NC(CCN6CCC(C(=O)OCCCP(=O)(O)O)CC6)CSc6ccccc6)c(S(=O)(=O)C(F)(F)F)c5)cc4)CC3)c2)c(-c2ccc(Cl)cc2)n1C(C)C" label_class="label 0"
compound="CCN1C(C(=O)NC23CCC(C(=O)O)(CC2)CC3)C(c2cccc(Cl)c2F)C2(C(=O)Nc3cc(Cl)ccc32)C12CCCCC2 (stereo unspecified) + Cc1c(S(C)(=O)=O)c(-c2cc(F)cc(N3CCN(c4ccc(NS(=O)(=O)c5ccc(NC(CCN6CCC(C(=O)OCCCP(=O)(O)O)CC6)CSc6ccccc6)c(S(=O)(=O)C(F)(F)F)c5)cc4)CC3)c2)c(-c2ccc(Cl)cc2)n1C(C)C" label_class="label 0"
compound="Cc1nc(N2CCC3(CC2)COC(C)C3N)c(CO)nc1Sc1ccnc(N)c1Cl (stereo unspecified) + CNC(C)C(=O)NC1CN(S(=O)(=O)c2cccc(S(=O)(=O)N3CCC4CCC(C(=O)NC(c5ccccc5)c5ccccc5)N4C(=O)C(NC(=O)C(C)NC)C3)c2)CCC2CCC(C(=O)NC(c3ccccc3)c3ccccc3)N2C1=O" label_class="label 0"
compound="CCN1C(C(=O)NC23CCC(C(=O)O)(CC2)CC3)C(c2cccc(Cl)c2F)C2(C(=O)Nc3cc(Cl)ccc32)C12CCCCC2 (stereo unspecified) + CNC(C)C(=O)NC1CN(S(=O)(=O)c2cccc(S(=O)(=O)N3CCC4CCC(C(=O)NC(c5ccccc5)c5ccccc5)N4C(=O)C(NC(=O)C(C)NC)C3)c2)CCC2CCC(C(=O)NC(c3ccccc3)c3ccccc3)N2C1=O" label_class="label 0"
compound="NC(=O)C(=Cn1cnc(-c2cc(C(F)(F)F)cc(C(F)(F)F)c2)n1)c1cncnc1 + Cc1c(S(C)(=O)=O)c(-c2cc(F)cc(N3CCN(c4ccc(NS(=O)(=O)c5ccc(NC(CCN6CCC(C(=O)OCCCP(=O)(O)O)CC6)CSc6ccccc6)c(S(=O)(=O)C(F)(F)F)c5)cc4)CC3)c2)c(-c2ccc(Cl)cc2)n1C(C)C" label_class="label 1"

---

# Tested on: OVCAR-8 complex spheroid, growth inhibition
# assay protocol: Anticancer human tumor OVCAR-8 cell line growth inhibition [Asc];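 also: spheroids exposed to agents for 7 days before readout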
# stated conditions: curve of first compound; second compound 0.0949 µM
measure: IC50

compound="C=C(F)C(=O)N1CCN(c2nc(OCC3CCCN3C)nc3c2CCN(c2cccc4cccc(Cl)c24)C3)CC1CC#N (stereo not drawn) + CCN1C(C(=O)NC23CCC(C(=O)O)(CC2)CC3)C(c2cccc(Cl)c2F)C2(C(=O)Nc3cc(Cl)ccc32)C12CCCCC2" target_of_assay="OVCAR-8 complex spheroid, growth inhibition" measure=IC50 endpoint_value="2720 nM"
compound="CNC(C)C(=O)NC1CN(S(=O)(=O)c2cccc(S(=O)(=O)N3CCC4CCC(C(=O)NC(c5ccccc5)c5ccccc5)N4C(=O)C(NC(=O)C(C)NC)C3)c2)CCC2CCC(C(=O)NC(c3ccccc3)c3ccccc3)N2C1=O (stereo not drawn) + CCN1C(C(=O)NC23CCC(C(=O)O)(CC2)CC3)C(c2cccc(Cl)c2F)C2(C(=O)Nc3cc(Cl)ccc32)C12CCCCC2" target_of_assay="OVCAR-8 complex spheroid, growth inhibition" measure=IC50 endpoint_value="> 1000 nM"
compound="NC(=O)C(=Cn1cnc(-c2cc(C(F)(F)F)cc(C(F)(F)F)c2)n1)c1cncnc1 + CCN1C(C(=O)NC23CCC(C(=O)O)(CC2)CC3)C(c2cccc(Cl)c2F)C2(C(=O)Nc3cc(Cl)ccc32)C12CCCCC2" target_of_assay="OVCAR-8 complex spheroid, growth inhibition" measure=IC50 endpoint_value="> 300 nM"

---

# Tested on: OVCAR-8 complex spheroid, growth inhibition
# assay protocol: Anticancer human tumor OVCAR-8 cell line growth inhibition [Asc];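 also: spheroids exposed to agents for 7 days before readout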;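 as to viability, T/C: percent viability relative to DMSO vehicle wells taken as 100%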
# stated conditions: second compound 0.0316 µM; first compound 0.01 µM; stronger effect = lower value
# Excerpt: Multicellular complex tumor spheroid response to apoptosis pathway targeting inhibitors Alrizomadlin, Pelcitoclax, and Dasminapant in combination with a variety of drugs and investigational agents in selected tumor cell lines […] Compounds. […] If the clinical Cmax for an agent had not been determined, the highest concentration tested was 10 microM. […]
The following molecules are listed with their measured viability, T/C values.
measure: viability, T/C (%)

molecule="CCN1CCN(Cc2ccc(Nc3ncc(F)c(-c4cc(F)c5nc(C)n(C(C)C)c5c4)n3)nc2)CC1 + CNC(C)C(=O)NC1CN(S(=O)(=O)c2cccc(S(=O)(=O)N3CCC4CCC(C(=O)NC(c5ccccc5)c5ccccc5)N4C(=O)C(NC(=O)C(C)NC)C3)c2)CCC2CCC(C(=O)NC(c3ccccc3)c3ccccc3)N2C1=O" endpoint_value=88.5
molecule="O=C(c1ccc(F)c(F)c1Nc1ccc(I)cc1F)N1CC(O)([C@@H]2CCCCN2)C1 + Cc1c(S(C)(=O)=O)c(-c2cc(F)cc(N3CCN(c4ccc(NS(=O)(=O)c5ccc(NC(CCN6CCC(C(=O)OCCCP(=O)(O)O)CC6)CSc6ccccc6)c(S(=O)(=O)C(F)(F)F)c5)cc4)CC3)c2)c(-c2ccc(Cl)cc2)n1C(C)C" endpoint_value=114
molecule="NC1CCC(NC2CC2c2ccccc2)CC1 (configuration not stated) + Cc1c(S(C)(=O)=O)c(-c2cc(F)cc(N3CCN(c4ccc(NS(=O)(=O)c5ccc(NC(CCN6CCC(C(=O)OCCCP(=O)(O)O)CC6)CSc6ccccc6)c(S(=O)(=O)C(F)(F)F)c5)cc4)CC3)c2)c(-c2ccc(Cl)cc2)n1C(C)C" endpoint_value=101
molecule="Cn1ncnc1[C@H]1c2n[nH]c(=O)c3cc(F)cc(c23)N[C@@H]1c1ccc(F)cc1 + CNC(C)C(=O)NC1CN(S(=O)(=O)c2cccc(S(=O)(=O)N3CCC4CCC(C(=O)NC(c5ccccc5)c5ccccc5)N4C(=O)C(NC(=O)C(C)NC)C3)c2)CCC2CCC(C(=O)NC(c3ccccc3)c3ccccc3)N2C1=O" endpoint_value=97.1
molecule="Cn1ncnc1[C@H]1c2n[nH]c(=O)c3cc(F)cc(c23)N[C@@H]1c1ccc(F)cc1 + Cc1c(S(C)(=O)=O)c(-c2cc(F)cc(N3CCN(c4ccc(NS(=O)(=O)c5ccc(NC(CCN6CCC(C(=O)OCCCP(=O)(O)O)CC6)CSc6ccccc6)c(S(=O)(=O)C(F)(F)F)c5)cc4)CC3)c2)c(-c2ccc(Cl)cc2)n1C(C)C" endpoint_value=103
molecule="COc1c(OCCCN2CCOCC2)ccc2c3n(c(=NC(=O)c4cnc(N)nc4)nc12)CCN3 + Cc1c(S(C)(=O)=O)c(-c2cc(F)cc(N3CCN(c4ccc(NS(=O)(=O)c5ccc(NC(CCN6CCC(C(=O)OCCCP(=O)(O)O)CC6)CSc6ccccc6)c(S(=O)(=O)C(F)(F)F)c5)cc4)CC3)c2)c(-c2ccc(Cl)cc2)n1C(C)C" endpoint_value=104
molecule="NC1CCC(NC2CC2c2ccccc2)CC1 (configuration not stated) + CNC(C)C(=O)NC1CN(S(=O)(=O)c2cccc(S(=O)(=O)N3CCC4CCC(C(=O)NC(c5ccccc5)c5ccccc5)N4C(=O)C(NC(=O)C(C)NC)C3)c2)CCC2CCC(C(=O)NC(c3ccccc3)c3ccccc3)N2C1=O" endpoint_value=98.5

---

# System: OVCAR-8 complex spheroid, growth inhibition
# assay protocol: Anticancer human tumor OVCAR-8 cell line growth inhibition [Asc];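 also: spheroids exposed to agents for 7 days before readout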;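 as to viability, T/C: percent viability relative to DMSO vehicle wells taken as 100%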
# stated conditions: second compound 0.316 µM; first compound 3 µM; stronger effect = lower value
measure: viability, T/C (%)

compound="Cc1nc(N2CCC3(CC2)COC(C)C3N)c(CO)nc1Sc1ccnc(N)c1Cl (centres undefined) + Cc1c(S(C)(=O)=O)c(-c2cc(F)cc(N3CCN(c4ccc(NS(=O)(=O)c5ccc(NC(CCN6CCC(C(=O)OCCCP(=O)(O)O)CC6)CSc6ccccc6)c(S(=O)(=O)C(F)(F)F)c5)cc4)CC3)c2)c(-c2ccc(Cl)cc2)n1C(C)C" target_of_assay="OVCAR-8 complex spheroid, growth inhibition" unit_descriptor=% endpoint_value=175
compound="CCN1C(C(=O)NC23CCC(C(=O)O)(CC2)CC3)C(c2cccc(Cl)c2F)C2(C(=O)Nc3cc(Cl)ccc32)C12CCCCC2 (centres undefined) + CNC(C)C(=O)NC1CN(S(=O)(=O)c2cccc(S(=O)(=O)N3CCC4CCC(C(=O)NC(c5ccccc5)c5ccccc5)N4C(=O)C(NC(=O)C(C)NC)C3)c2)CCC2CCC(C(=O)NC(c3ccccc3)c3ccccc3)N2C1=O" target_of_assay="OVCAR-8 complex spheroid, growth inhibition" unit_descriptor=% endpoint_value=97.5
compound="Cc1nc(N2CCC3(CC2)COC(C)C3N)c(CO)nc1Sc1ccnc(N)c1Cl (centres undefined) + CNC(C)C(=O)NC1CN(S(=O)(=O)c2cccc(S(=O)(=O)N3CCC4CCC(C(=O)NC(c5ccccc5)c5ccccc5)N4C(=O)C(NC(=O)C(C)NC)C3)c2)CCC2CCC(C(=O)NC(c3ccccc3)c3ccccc3)N2C1=O" target_of_assay="OVCAR-8 complex spheroid, growth inhibition" unit_descriptor=% endpoint_value=110
compound="CCN1C(C(=O)NC23CCC(C(=O)O)(CC2)CC3)C(c2cccc(Cl)c2F)C2(C(=O)Nc3cc(Cl)ccc32)C12CCCCC2 (centres undefined) + Cc1c(S(C)(=O)=O)c(-c2cc(F)cc(N3CCN(c4ccc(NS(=O)(=O)c5ccc(NC(CCN6CCC(C(=O)OCCCP(=O)(O)O)CC6)CSc6ccccc6)c(S(=O)(=O)C(F)(F)F)c5)cc4)CC3)c2)c(-c2ccc(Cl)cc2)n1C(C)C" target_of_assay="OVCAR-8 complex spheroid, growth inhibition" unit_descriptor=% endpoint_value=125
